meta.source: ChEMBL document CHEMBL4765252

experiment: Clearance in BALB/c mouse at 5 mg/kg, iv administered as single dose; type: ADME, organism-based; details: in vivo
observable: clearance (mL/min/kg)
# unit: mL/min/kg | format: bare number

Can you share its clearance? I mean this compound: `O=c1cc(-c2ccc(O)cc2)oc2ccc(O)c(CN3CCC3)c12` 80.1

###

assay: MRT (0 to infinity) in BALB/c mouse at 5 mg/kg, iv administered as single dose; format: ADME, organism-based; conditions: in vivo
observable: MRT inf (min)
# unit: min | format: bare number

Can you share its MRT inf? I mean this compound: `O=c1cc(-c2ccc(O)cc2)oc2ccc(O)c(CN3CCC3)c12` 41.4
